assay.system: Pim-1 (Homo sapiens (Human))
Sequence (P11309 whole entry): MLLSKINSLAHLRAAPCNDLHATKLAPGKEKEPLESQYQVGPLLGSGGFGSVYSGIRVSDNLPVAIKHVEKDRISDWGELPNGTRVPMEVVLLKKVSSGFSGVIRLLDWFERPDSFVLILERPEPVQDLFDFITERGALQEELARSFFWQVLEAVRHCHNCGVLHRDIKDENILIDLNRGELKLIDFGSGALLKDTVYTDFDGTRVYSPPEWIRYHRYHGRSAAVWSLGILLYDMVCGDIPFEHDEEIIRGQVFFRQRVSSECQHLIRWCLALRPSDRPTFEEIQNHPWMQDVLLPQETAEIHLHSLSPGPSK
protocol.notes: Pim enzyme assay (HTRF, phosphorylation of biotinylated-BAD (S112) peptide), Pim-1
Assay type: biochemical
measurement.context: full length recombinant Pim-1, biotinylated-BAD (S112) peptide, HTRF, 96-well; read-out: Pim-1 IC50 IP
Text: Full-length human cDNAs encoding Pim-1 (MGC ID 3913552) or Pim-2 (IMAGE ID 5092935) were purchased from Invitrogen, Carlsbad, Calif. These cDNAs were used as templates in PCR reactions to produce full-length DNA clones of the PIMs. […] The phosphorylation of biotinylated-BAD (S112) peptide by full length recombinant Pim-1, Pim-2, or Pim-3 protein was detected with streptavidin:Allophycocyanin (APC) conjugate and a europium (Eu) labeled antibody directed against phosphorylated-BAD (S112). […]
pIC50: −log10 of the molar value.
readout.kind: pIC50

Below: 2 compounds and their reported pIC50.
compound: CN[C@H]1CCCN(c2ccncc2Nc2ncc3ccc(-c4c(F)cccc4F)nn23)C1
readout.kind: pIC50
recorded.result: 8.70

compound: N[C@H]1CCCN(c2ccncc2Nc2ncc3ccc(-c4ccccn4)nn23)C1
readout.kind: pIC50
recorded.result: 8.82

(I) N[C@H]1CCCN(c2ccncc2Nc2nnc3cccnn23)C1 [Example 68, 2,2,2-trifluoroacetate]
(II) C[C@H]1CN(c2ccncc2Nc2ncc3ccc(-c4c(F)cccc4F)nn23)CCN1 [Example 58, bis(2,2,2-trifluoroacetate)]
(III) N[C@@H]1C=C(c2ccncc2Nc2ncc3ccc(-c4c(F)cccc4F)nn23)CCC1 (racemic) [Example 82, tris(2,2,2-trifluoroacetate)]
(IV) N[C@H]1CCCN(c2ccncc2Nc2ncc3ccc(-c4cc(C(=O)NC5CC5)ccc4F)nn23)C1
Query :: Order the records, beginning with the lowest pIC50 and ending with the highest. As an answer, provide the labels arranged in the order called for.
Result :: I, II, III, IV

---

System: KMS-12-BM myeloma cell line
protocol.notes: Pim cell assay: phospho-BAD (S112) and total BAD in KMS-12-BM cells
Format: cell-based
measurement.context: 1 hour and 50 minutes incubation, read-out: KMS12_Cell_IC50
Protocol: The KMS-12-BM myeloma cell line was used to determine the in vitro cellular inhibition of Pim kinases. Disruption of Pim signaling by Pim inhibitors was determined by measuring the levels of phospho-BAD (S112) and total BAD. […] The cells were then incubated overnight at 37° C., 5% CO2. […] The plates were read on the MSD Sector Imager 6000, and results were calculated according to the assay protocol: ((% Phosphoprotein=((2×Phospho signal)/(Phospho signal+Total signal))×100)).
readout.kind: IC50 (nM)
Numeric only. Scale: nM

Query :: Look up IC50 for this molecule: O[C@H]1CCN(c2ccncc2Nc2ncc3ccc(-c4c(F)cccc4F)nn23)C[C@@H]1O (mixture of isomers)
Result :: 777

---

The compounds listed here are annotated with their IC50.
assay.system: Pim-1 (Homo sapiens (Human))
protocol.notes: Pim enzyme assay (HTRF, phosphorylation of biotinylated-BAD (S112) peptide), Pim-1
Format: biochemical
measurement.context: read-out: Pim_1_IC50
Structures can show the parent of a compound that is named as a salt.
Numeric only. Scale: nM

Below: 2 compounds and their reported IC50.
compound: N[C@H]1CCCN(c2ccncc2Nc2ncc3ccc(-c4ccccc4F)nn23)C1 [Example 15, bis(2,2,2-trifluoroacetate)]
readout.kind: IC50
measure.unit: nM
recorded.result: 0.2
//
compound: N[C@H]1CCCN(c2sncc2Nc2ncc3ccc(-c4c(F)cccc4F)nn23)C1 [Example 31, dihydrochloride]
readout.kind: IC50
measure.unit: nM
recorded.result: 50

Consider the additional compound presented here.
Query :: Look up IC50 for this compound: O[C@H]1CCN(c2ccncc2Nc2ncc3ccc(-c4c(F)cccc4F)nn23)C[C@@H]1O (mixture of isomers)
Result :: 2

Attribution: patent US9187486B2
